TESTED SYSTEM: T1, RPN13 Pru (1–150), reduced (UniProt Q16186 1-150)
T1 construct: Kept in reducing ITC buffer (10 mM βME); also called redu RPN13^Pru; RPN13 (1–150); source: E. coli BL21(DE3) pLysS, purified (Talon resin, PreScission elution, Superdex 75); not shown: His6, N-terminal, cleaved
T1 sequence (Q16186 1-150): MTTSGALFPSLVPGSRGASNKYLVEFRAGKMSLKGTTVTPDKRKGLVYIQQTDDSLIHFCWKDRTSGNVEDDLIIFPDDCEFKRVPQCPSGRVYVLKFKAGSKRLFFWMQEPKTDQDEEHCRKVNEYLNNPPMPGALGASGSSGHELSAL
METHOD SUMMARY: ITC; RPN2 (940–953) in the syringe (156 μM), RPN13 Pru in the cell (15.6 μM); 25 °C, reducing buffer: 20 mM sodium phosphate, 50 mM NaCl, 10 mM βME, pH 6.0; one-site fit
SETUP CONDITIONS: both partners purified

{"BINDER": "QEPEPPEPFEYIDD (peptide, UniProt Q99460 940-953, looked up, The construct has a PreScission site after GST, but the methods tell only of elution as the GST fusion; ITC and NMR speak of the RPN2 peptide; also called RPN2 (940–953); RPN2^940–953) [RPN2 peptide (940–953)]", "Kd": "12.4 nM"}

meta.source: paper doi:10.1101/2025.07.31.667872
